Assay: Lipophilicity coefficient RM0 by reversed phase thin layer chromatography
Type: physicochemical
Settings: RP-18 TLC, methanol / 100 mM phosphate buffer pH = 7.4
Protocol: Confirmation of the identity and purity of the obtained compounds consisted in the registration and interpretation of ^1H NMR and ^13C NMR spectra (the spectra were recorded using an ECZR 500 MHz (JEOL) series FT-NMR spectrophotometer), as well as the registration and interpretation of LC-MS spectra (the spectra were recorded using Acquita UPLC system (Waters) coupled with a Waters TQD mass spectrometer). […]
measurement label: RM0
Enter a number only.

* CC(C)C(CO)NC(=O)/C=C/c1ccc(Cl)cc1 (stereo not drawn) [Compound A-106] | 2.76
* O=C(/C=C/c1ccc(Cl)cc1Cl)NCCCCO [H-298/20] | 2.78
* CCC(O)CNC(=O)/C=C/c1ccc(Cl)cc1Cl (stereo not drawn) [H-320/21] | 3.08
* O=C(/C=C/c1ccc(Cl)cc1)NCCCO [H-330/21] | 1.94
* Cc1ccc(/C=C/C(=O)NCCCCCO)cc1 [H-415/21] | 2.49

Here is another molecule to look at.
State the recorded RM0 for this entry: O=C(/C=C/c1ccc(Cl)cc1Cl)N1CCC(O)CC1 [H-310/20]
2.80
